- Tested on: HIV-1NL4-3
- Assay notes: P4-MAGI assay
- Type: cell-based
- Assay conditions: Human immunodeficiency virus 1, 24 h, P4 cells, 24 hour incubation, β-galactosidase expression; read-out: P4-MAGI IC50
- Source text: P4 cells were used to test the effects of compounds on virus fusion activity. P4 cells are HIV-1 infectable CD4^+ HeLa cells that bear the bacterial lacZ gene under the control of a minimal HIV-1 LTR. Charneau, et. al., J. Mol. Biol. 241:651-662 (1994). When these cells are infected with HIV-1, β-galactosidase is expressed due to Tat activation of the viral LTR. […]
Please assign condition not met whenever IC50 is at or above 100 nM, and condition met whenever it is below.

Check out these entries, answers already filled in.
Molecule	Category
C=C(C)[C@@H]1CC[C@]2(C(=O)NCCc3cccc(C(=O)NCc4ccc(C(=O)NC(Cc5c[nH]cn5)C(=O)O)cc4)c3)CC[C@]3(C)C(CCC4[C@@]5(C)CC[C@H](O)C(C)(C)C5CC[C@]43C)C12 (some centres unmarked)	condition not met
C=C(C)[C@@H]1CC[C@]2(C(=O)NCCc3cccc(C(=O)NCc4ncccc4C(=O)OC)c3)CC[C@]3(C)C(CCC4[C@@]5(C)CC[C@H](O)C(C)(C)C5CC[C@]43C)C12 (some centres unmarked)	condition met
C=C(C)[C@@H]1CC[C@]2(C(=O)NCCc3cccc(C(=O)NCc4ccc(S(=O)(=O)NCCN5CCOCC5)cc4)c3)CC[C@]3(C)C(CCC4[C@@]5(C)CC[C@H](O)C(C)(C)C5CC[C@]43C)[C@@H]12 (some centres unmarked)	condition met
C=C(C)[C@@H]1CC[C@]2(C(=O)NCC(C)c3cccc(C(=O)NCc4cccc(C(=O)O)c4C)c3)CC[C@]3(C)C(CCC4[C@@]5(C)CC[C@H](O)C(C)(C)C5CC[C@]43C)C12 (some centres unmarked)	condition not met
C=C(C)[C@@H]1CC[C@]2(C(=O)NCc3cccc(C(=O)NC4(Cc5ccc(C(=O)O)cc5)CC4)c3)CC[C@]3(C)C(CCC4[C@@]5(C)CC[C@H](O)C(C)(C)C5CC[C@]43C)C12 (some centres unmarked)	condition not met

Task: Find out if reported IC50 for C=C(C)[C@@H]1CC[C@]2(C(=O)NCc3cccc(C(=O)NCc4cccc(C(=O)O)c4F)c3)CC[C@]3(C)C(CCC4[C@@]5(C)CC[C@H](O)C(C)(C)C5CC[C@]43C)C12 (some centres unmarked) is less than 100 nM
Result: condition met

Task: Please indicate whether the reported IC50 of C=C(C)[C@@H]1CC[C@]2(C(=O)NCCc3cccc(C(=O)N[C@@H](CCC(=O)OC)C(N)=O)c3)CC[C@]3(C)C(CCC4[C@@]5(C)CC[C@H](O)C(C)(C)C5CC[C@]43C)C12 (some centres unmarked) is strictly below 100 nM.
Result: condition not met

Task: Find out if reported IC50 for C=C(C)[C@@H]1CC[C@]2(C(=O)NCCc3cccc(C(=O)NCc4cccc(C(=O)O)c4F)c3)CC[C@]3(C)C(CCC4[C@@]5(C)CC[C@H](O)C(C)(C)C5CC[C@]43C)C12 (some centres unmarked) is less than 100 nM
Result: condition met

----------
- Tested on: HIV-1NL4-3
- Assay notes: P4-MAGI assay
- Type: cell-based
- Assay conditions: Human immunodeficiency virus 1, 24 h, P4 cells, 24 hour incubation, β-galactosidase expression; read-out: P4-MAGI IC50
pIC50: recorded values
On this scale, pIC50 is minus log10 of a concentration expressed in M (mol/L).

Compound	Measurement label	Assay value
C=C(C)[C@@H]1CC[C@]2(C(=O)NCCc3ccc(C)c(C(=O)NCc4ccc(C(=O)O)cn4)c3)CC[C@]3(C)C(CCC4[C@@]5(C)CC[C@H](O)C(C)(C)C5CC[C@]43C)C12 (stereo partly shown)	pIC50	6.90

Task: What value of pIC50 has been reported for the following compound? C=C(C)[C@@H]1CC[C@]2(C(=O)NCCc3ccc(C)c(C(=O)NCc4ccc(C(=O)O)cc4)c3)CC[C@]3(C)C(CCC4[C@@]5(C)CC[C@H](O)C(C)(C)C5CC[C@]43C)C12 (stereo partly shown)
Result: 7.07

Task: For the compound C=C(C)[C@@H]1CC[C@]2(C(=O)NCCc3ccc(O)cc3)CC[C@]3(C)C(CCC4[C@@]5(C)CC[C@H](O)C(C)(C)C5CC[C@]43C)C12 (stereo partly shown) , what pIC50 is on record?
Result: 7.14

Task: Fill in the blank: the reported pIC50 of C=C(C)[C@@H]1CC[C@]2(C(=O)NCc3ccc(F)c(C(=O)NCc4ccc(C(=O)O)cc4)c3)CC[C@]3(C)C(CCC4[C@@]5(C)CC[C@H](O)C(C)(C)C5CC[C@]43C)C12 (stereo partly shown) is ____.
Result: 6.99

----------
- Tested on: HIV-1NL4-3
- Assay notes: P4-MAGI assay
- Format: cell-based
- Assay conditions: Human immunodeficiency virus 1, 24 h, P4 cells, 24 hour incubation, β-galactosidase expression; read-out: P4-MAGI IC50
Measurement label: IC50 (nM)
Number only, in nM; omit the unit.

# count of solved cases: 2
Molecule	Units of measure	IC50
C=C(C)[C@@H]1CC[C@]2(C(=O)NCCc3cccc(C(=O)NCc4ccc(C(=O)N[C@@H](C(=O)OC)C(C)C)cc4)c3)CC[C@]3(C)C(CCC4[C@@]5(C)CC[C@H](O)C(C)(C)C5CC[C@]43C)C12 (stereo partly drawn)	nM	20
C=C(C)[C@@H]1CC[C@]2(C(=O)NCc3ccc(F)c(C(=O)NCCc4cccc(C(=O)OC)c4)c3)CC[C@]3(C)C(CCC4[C@@]5(C)CC[C@H](O)C(C)(C)C5CC[C@]43C)C12 (stereo partly drawn)	nM	1300

Task: Consider the molecule shown here: C=C(C)[C@@H]1CC[C@]2(C(=O)NCc3cc(C(=O)NCc4cccc(C(=O)OC)c4F)ccc3F)CC[C@]3(C)C(CCC4[C@@]5(C)CC[C@H](O)C(C)(C)C5CC[C@]43C)C12 (stereo partly drawn) What is its recorded IC50?
Result: 600
